Each recorded value in this set is attributed to patent US9233979B2.

target: UniProt P28482; test: Active Human ERK2 (hERK2) Activity Assay (IMAP-FP); format: biochemical; details: Table 6, 0.5 nM hERK2, 30 μM ATP, 10 point titration, read-out: AERK2 IC50
Response field label: string, one of 1 (IC50 strictly below 2 nM) or -1.

Below, 7 compounds whose answers are already recorded.
Compound Structure String: C[C@@H](NC(=O)Nc1cc2[nH]nc(NC(=O)c3ccco3)c2cn1)c1ccccc1
Label: -1
--
Compound Structure String: Nc1n[nH]c2cc(NC(=O)N[C@H](c3ccccc3)[C@H]3CCCO3)ncc12
Label: -1
--
Compound Structure String: CC(C)(O)[C@@H](NC(=O)Nc1cc2[nH]nc(NC(=O)OC3CCOCC3)c2cn1)c1ccc(F)cc1
Label: 1
--
Compound Structure String: C[C@@H](NC(=O)Nc1cc2[nH]nc(NC3CCCC3)c2cn1)c1ccccc1
Label: -1
--
Compound Structure String: COC(=O)Nc1n[nH]c2cc(NC(=O)N[C@@H](c3ccccc3)C3(O)CCCC3)ncc12
Label: 1
--
Compound Structure String: COC[C@@H](NC(=O)Nc1cc2[nH]nc(N(CC3CCC3)CC3CCC3)c2cn1)c1ccccc1
Label: -1
--
Compound Structure String: Nc1n[nH]c2cc(NC(=O)NCc3ccccc3OC(F)F)ncc12
Label: -1

Problem: For the compound COC(=O)Nc1n[nH]c2cc(NC(=O)N[C@H](C)c3ccccc3F)ncc12 , is IC50 under 2 nM?
-1

###

target: phosphorylated active hERK2 enzyme (Homo sapiens (Human)); assay: Active Human ERK2 (hERK2) Activity Assay (IMAP-FP); assay type: biochemical; conditions: Table 6, 0.5 nM hERK2, 30 μM ATP, 10 point titration, read-out: AERK2 IC50
Assay Readout: pIC50
One number for each entry, as −log10 of the molar value.

Molecule: C[C@@H](NC(=O)Nc1cc2[nH]nc(NC3CC3)c2cn1)c1ccccc1 [Example 330]
Study System: phosphorylated active hERK2 enzyme (Homo sapiens (Human))
Test Result: 9.05

I have 4 molecules here; please give me pIC50 for each one.
1. CC(C)C(=O)Nc1n[nH]c2cc(NC(=O)N[C@H](C)c3ccccc3)ncc12 [Example 163]
2. COC[C@@H](NC(=O)Nc1cc2[nH]nc(N3CCC(O)CC3)c2cn1)c1ccccc1 [Example 410]
3. CCNc1n[nH]c2cc(NC(=O)N[C@@H]3CN(C)C[C@H]3c3ccccc3)ncc12 [Example 253]
4. CC(C)(O)[C@@H](NC(=O)Nc1cc2[nH]nc(N3CCC3)c2cn1)c1ccccc1 [Example 104]

1. 9.22
2. 8.92
3. 9.00
4. 8.80

###

Could you please report measured pIC50 for the items listed next?
target: phosphorylated active hERK2 enzyme (Homo sapiens (Human), UniProt P28482); assay: Active Human ERK2 (hERK2) Activity Assay (IMAP-FP); format: biochemical; details: Table 6, 0.5 nM hERK2, 30 μM ATP, 10 point titration, read-out: AERK2 IC50
Sequence (P28482 whole entry): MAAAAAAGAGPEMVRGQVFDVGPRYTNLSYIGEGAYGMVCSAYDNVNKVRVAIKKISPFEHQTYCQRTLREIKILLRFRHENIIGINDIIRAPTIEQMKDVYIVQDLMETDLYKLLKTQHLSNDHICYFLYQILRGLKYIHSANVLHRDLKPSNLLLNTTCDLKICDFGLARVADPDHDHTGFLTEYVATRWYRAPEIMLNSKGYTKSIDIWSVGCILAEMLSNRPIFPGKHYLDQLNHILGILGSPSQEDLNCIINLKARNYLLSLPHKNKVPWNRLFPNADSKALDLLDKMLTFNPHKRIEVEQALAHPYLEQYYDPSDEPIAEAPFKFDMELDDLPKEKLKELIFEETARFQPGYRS
Answers are plain numbers, as −log10 of the molar value.

Worked examples follow.
Molecule: C[C@@H](NC(=O)Nc1cc2[nH]nc3c2c(n1)COC(=O)N3)c1ccccc1
Study System: phosphorylated active hERK2 enzyme (Homo sapiens (Human), UniProt P28482)
Assay Readout: pIC50
Test Result: 8.96
--
Molecule: CC(C)COC(=O)Nc1n[nH]c2cc(NC(=O)N[C@H](C)c3ccccc3)ncc12
Study System: phosphorylated active hERK2 enzyme (Homo sapiens (Human), UniProt P28482)
Assay Readout: pIC50
Test Result: 7.49
--
Molecule: CCNc1n[nH]c2cc(NC(=O)N[C@H](CC)c3ccc(Cl)cc3)ncc12
Study System: phosphorylated active hERK2 enzyme (Homo sapiens (Human), UniProt P28482)
Assay Readout: pIC50
Test Result: 8.66
--
Molecule: CCNc1n[nH]c2cc(NC(=O)N[C@@H](CN(C)C)c3ccccc3)ncc12
Study System: phosphorylated active hERK2 enzyme (Homo sapiens (Human), UniProt P28482)
Assay Readout: pIC50
Test Result: 7.56

// each listed molecule needs a value for pIC50
1. COC[C@@H](NC(=O)Nc1cc2[nH]nc(N3CCc4ncsc4C3)c2cn1)c1ccccc1
2. COC(=O)Nc1n[nH]c2cc(NC(=O)NCc3c(F)cccc3OC)ncc12
3. COC(=O)Nc1n[nH]c2cc(NC(=O)N[C@H](C)c3ccc(F)cc3)ncc12
4. C[C@@H](NC(=O)Nc1cc2[nH]nc(NCc3ccccn3)c2cn1)c1ccccc1
5. C[C@@H](NC(=O)Nc1cc2[nH]nc(N[C@@H]3COC[C@H]3F)c2cn1)c1ccccc1
6. CC(Nc1n[nH]c2cc(NC(=O)N[C@H](C)c3ccccc3)ncc12)C(F)(F)F (stereo partly shown) [Example 418]

1. 9.52
2. 8.92
3. 8.59
4. 8.03
5. 8.44
6. 8.49
